Tested on: Escherichia coli 1507E
Assay Protocol: In vitro anti-bacterial activity test (MIC, two-fold agar dilution)
Format: cell-based
Condition Summary: Mueller-Hinton agar, 10⁷ CFU/mℓ, 37°C, 18 hours, read-out: MIC
Metric: MIC (µg/mL)
Report the figure in µg/mL without appending any unit label.

Exercise: Reported MIC, compound CNC1CCC2=C1CN(c1c(F)c(N)c3c(=O)c(C(=O)O)cn(C4CC4)c3c1F)C2 (stereo not drawn) [Example 11] : ____
Key: 0.098

Exercise: Param item: NC1CCC2=C1CN(c1c(F)cc3c(=O)c(C(=O)O)cn(C4CC4)c3c1F)C2 (stereo not drawn) [Example 1]
Key: 0.049

Exercise: Request: NC1CCC2=C1CN(c1c(F)cc3c(=O)c(C(=O)O)cn(C4CC4)c3c1Cl)C2 (stereo not drawn) [Example 3]
Key: 0.098

Exercise: Now the compound CNC1CCC2=C1CN(c1nc3c(cc1F)c(=O)c(C(=O)O)cn3C1CC1)C2 (stereo not drawn) [Example 15]
Key: 0.195

Exercise: Input NC1CCCC2=C1CN(c1c(F)cc3c(=O)c(C(=O)O)cn(C4CC4)c3c1F)C2 (stereo not drawn) [Example 9]
Key: 0.098

Exercise: And for CNC1CCC2=C1CN(c1c(F)cc3c(=O)c(C(=O)O)cn(C4CC4)c3c1Cl)C2 (stereo not drawn) [Example 4] ?
Key: 0.098

Exercise: What about this compound? CNC1CCC2=C1CN(c1c(F)cc3c(=O)c(C(=O)O)cn4c3c1OC[C@@H]4C)C2 (stereo partly drawn) [Example 17]
Key: 0.781

Exercise: Entry CNC1CCC2=C1CN(c1c(F)cc3c(=O)c(C(=O)O)cn(C4CC4)c3c1F)C2 (stereo not drawn) [Example 2] please
Key: 0.098

Exercise: Input CC1COc2c(N3CCN(C)CC3)c(F)cc3c(=O)c(C(=O)O)cn1c23 (stereo not drawn) [Ofloxacin, reference compound]
Key: 0.098
